- Tested on: S. simulans
- Measurement Description: EDTA salt dilution test, MIC/MBC
- Format: cell-based
- Measurement Parameters: Exhibit A1
Reported MBC, minimum concentration required to kill an entire population values are given for each entry in this list.

Below, 2 molecules whose answers are already recorded.
molecule="O=C([O-])CN(CCN(CC(=O)[O-])CC(=O)[O-])CC(=O)[O-].[Fe+3].[Na+] [Ferric-sodium salt EDTA]" recorded_result=">30 mg/mL"
molecule="O=C([O-])CN(CCN(CC(=O)[O-])CC(=O)[O-])CC(=O)[O-].[Cu+2].[Na+].[Na+] [Cupric disodium EDTA]" recorded_result="<0.5 mg/mL"

Next molecule, please.
Request: Report MBC, minimum concentration required to kill an entire population, nothing else, for this molecule: O=C([O-])CN(CCN(CC(=O)[O-])CC(=O)[O-])CC(=O)[O-].[Mg+2].[Na+].[Na+] [Magnesium disodium EDTA]
Response: >30 mg/mL

====

- Tested on: S. xylosus
- Measurement Description: EDTA salt dilution test, MIC/MBC
- Type: cell-based
- Measurement Parameters: Exhibit A1
Endpoint Label: MBC, minimum concentration required to kill an entire population

Below, 2 compounds whose answers are already recorded.
compound="O=C([O-])CN(CCN(CC(=O)[O-])CC(=O)[O-])CC(=O)[O-].[Mg+2].[Na+].[Na+] [Magnesium disodium EDTA]" recorded_result=">30 mg/mL"
compound="O=C([O-])CN(CCN(CC(=O)[O-])CC(=O)[O-])CC(=O)[O-].[Cu+2].[Na+].[Na+] [Cupric disodium EDTA]" recorded_result="<0.5 mg/mL"

Next compound, please.
Request: Report MBC, minimum concentration required to kill an entire population, nothing else, for this compound: O=C([O-])CN(CCN(CC(=O)[O-])CC(=O)[O-])CC(=O)[O-].[Fe+3].[Na+] [Ferric-sodium salt EDTA]
Response: >30 mg/mL

The values you see were collected from patent US20100316529A1.
